Test: Stability in rat serum measured as % recovery at 5 min
Format: ADME
Conditions: read-out: Recovery
Assay Metric: remaining at 5 min (%)
Numbers only here, please. The scale is %.

# annotated cases, reported remaining at 5 min shown
NCCC[C@H](N)C(=O)N[C@@H](Cc1ccccc1)C(=O)Nc1ccc2ccccc2c1 :: 76
CN(C(=O)[C@@H](N)Cc1ccccc1)[C@@H](CCCN)C(=O)Nc1ccc2ccccc2c1.O=C(O)C(F)(F)F.O=C(O)C(F)(F)F :: 100
NCCC[C@H](NC(=O)[C@@H](N)Cc1ccccc1)C(=O)Nc1ccc2ccccc2c1 :: 64

Next, consider the following compound.
Would you kindly share the measured remaining at 5 min for `NCCC[C@@H](N)C(=O)N[C@@H](CCc1ccccc1)C(=O)Nc1cnc2ccccc2c1` ?
98

###

Assay: Stability in rat serum measured as % recovery at 3 mins
Format: ADME
Details: read-out: Recovery
Peptide text beside a SMILES is read from it.
Assay Metric: remaining at 0.05 h

Would you kindly share the measured remaining at 0.05 h for N=C(N)NCCC[C@H](NC(=O)[C@@H](N)Cc1ccccc1)C(=O)Nc1ccc2ccccc2c1 [PABETAN] (HELM PEPTIDE1{F.R.[c1ccc2cc(N[*:1])ccc2c1]}$$$$V2.0) ?
73%

###

Test system: Pseudomonas aeruginosa
Assay: Compound was evaluated in PAM 1032 strain of Pseudomonas aeruginosa for its effect on levofloxacin ( 10 ug/mL) potentiation
Assay type: functional
Checkbox rule: MIC lower than 0.5 µg/mL = Y; MIC not lower than 0.5 µg/mL = N.

Answered cases to consult:
NCCC[C@H](NC(=O)[C@@H](N)CCc1ccccc1)C(=O)Nc1cnc2ccccc2c1 :: Y
NCCC[C@@H](N)C(=O)N[C@H](CCc1ccccc1)C(=O)Nc1cnc2ccccc2c1 :: N
NCCC[C@H](N)C(=O)N[C@H](CCc1ccccc1)C(=O)Nc1cnc2ccccc2c1 :: N

Next, consider the following molecule.
Problem: For the molecule `NCCC[C@@H](N)C(=O)N[C@@H](CCc1ccccc1)C(=O)Nc1cnc2ccccc2c1` , is MIC under 0.5 µg/mL?
Y

###

Recorded measurements of remaining at 0.05 h, one per entry
Experiment: Stability in rat serum measured as % recovery at 3 min
Format: ADME
Conditions: read-out: Recovery
Numbers only here, please. The scale is %.

NCCC[C@H](N)C(=O)N[C@@H](Cc1ccccc1)C(=O)Nc1ccc2ccccc2c1 :: 87

Would you kindly share the measured remaining at 0.05 h for `NCCC[C@H](NC(=O)[C@@H](N)Cc1ccccc1)C(=O)Nc1ccc2ccccc2c1` ?
80

Would you kindly share the measured remaining at 0.05 h for `NCCC[C@@H](N)C(=O)N[C@@H](CCc1ccccc1)C(=O)Nc1cnc2ccccc2c1` ?
98

Would you kindly share the measured remaining at 0.05 h for `CN(C(=O)[C@@H](N)Cc1ccccc1)[C@@H](CCCN)C(=O)Nc1ccc2ccccc2c1.O=C(O)C(F)(F)F.O=C(O)C(F)(F)F` ?
99

###

Assay: Stability in rat serum measured as % recovery at 10 mins
Type: ADME
Details: read-out: Recovery
Peptide text beside a SMILES is read from it.
Assay Metric: remaining at 10 min (%)
Numbers only here, please. The scale is %.

Would you kindly share the measured remaining at 10 min for N=C(N)NCCC[C@H](NC(=O)[C@@H](N)Cc1ccccc1)C(=O)Nc1ccc2ccccc2c1 [PABETAN] (HELM PEPTIDE1{F.R.[c1ccc2cc(N[*:1])ccc2c1]}$$$$V2.0) ?
25
